// values below are reported Fstable.Med
System: human plasma
Experiment Description: Chemical stability in plasma over the UC assay time course (T5hr/T1hr)
Stated Conditions: median fraction stable in plasma, UC assay Level4
Value Type: Fstable.Med

OCC(F)(F)C(F)(F)C(F)(F)CO [Hexafluoroamylene]    0.988
NC(=O)C(F)(F)C(F)(F)C(F)(F)F [Heptafluorobutyramide]    0.999
C=CC(=O)OCC(F)(F)C(F)(F)C(F)(F)COC(=O)C=C    0.00466
FC(F)(I)C(F)(F)C(F)(F)C(F)(F)I [Perfluoro-1,4-diiodobutane]    0.11
NC(=O)C(F)(F)C(F)(F)C(F)(F)C(F)(F)C(N)=O [Octafluoroadipamide]    0.546
NCC(F)(F)C(F)(F)C(F)(F)C(F)(F)C(F)(F)C(F)(F)C(F)(F)C(F)(F)F [1H,1H-Perfluorononylamine]    0.177
FC(F)(F)C(F)(F)C(F)(F)C(F)(F)CCI [1H,1H,2H,2H-Perfluorohexyl iodide]    0.99
C=C(C)C(=O)OCC(F)(F)C(F)(F)C(F)(F)C(F)F [1H,1H,5H-Perfluoropentyl methacrylate]    0.00623
OCCCCC(F)(F)C(F)(F)C(F)(F)C(F)(F)F [4:4 Fluorotelomer alcohol]    0.181
C=CC(=O)OCC(F)(F)C(F)(F)C(F)(F)C(F)(F)C(F)(F)C(F)(F)C(F)(F)C(F)F [1H,1H,9H-Perfluorononyl acrylate]    0.000116
